The measurements presented in this section are drawn from ChEMBL document CHEMBL1127041.

species on record: Mustela putorius furo; test: In vitro inotropic effect, 20% increase in the force of contraction of isolated ferret papillary muscle strips; type: functional; conditions: Muscle tissue
parameter measured: log10 EC20 (log10 of the value in µM)
Values reflect log10 of reported EC20 (µM).

Which log10 EC20 is listed for Cc1[nH]c(=O)c(C#N)cc1-c1ccncc1 [MILRINONE] ?
-0.30

Do the same for CC1=C(c2ccc(-n3ccnc3)cc2)CNC1=O please
0.36

Also check CCC1=C(c2ccc(-n3ccnc3C)cc2)CNC1=O
0.68

Query CCC1=C(c2ccc(-n3ccnc3)cc2)CNC1=O next
1.03

Note, next up: CC1=C(c2ccc(-n3ccnc3C)cc2)CNC1=O
1.01

Check COc1ccc(C2=C(C)C(=O)NC2)cc1OC too.
0.58

* * *

test system: Canis familiaris; assay: Mean percentage change in the left ventricular contractility (dP/dt) in pentobarbital anesthetized dogs at 3 mg/kg; assay type: functional, Canis lupus familiaris, Heart left ventricle
Would you kindly list Increase for each of these compounds?
Just the number please, in %, no unit attached.

Param item = CC1=C(c2ccc(-n3ccnc3C)cc2)CNC1=O ; retrieve measured Increase.
33

Same read-out for CCC1=C(c2ccc(-n3ccnc3C)cc2)CNC1=O ?
80

Same again, this time with CC1=C(c2ccc(-n3ccnc3)cc2)CNC1=O
75

Next entry: CCC1=C(c2ccc(-n3ccnc3)cc2)CNC1=O
44

* * *

species on record: Canis lupus familiaris; test: Percentage inhibition of cAMP PDE in canine brain tissue; type: tissue-based; settings: dose or concentration not given here
parameter measured: inhibition (%)
# value in %; strip the unit string

Consider the molecule CC1=C(c2ccc(-n3ccnc3C)cc2)CNC1=O and give its measured inhibition.
10

Do the same for Cc1[nH]c(=O)c(C#N)cc1-c1ccncc1 [MILRINONE] please
34

For CCC1=C(c2ccc(-n3ccnc3)cc2)CNC1=O then?
10

Same again, this time with CC1=C(c2ccc(-n3ccnc3)cc2)CNC1=O
16

* * *

system: Canis familiaris; experiment: Mean percentage change in the left ventricular contractility (dP/dt) in pentobarbital anesthetized dogs at 1 mg/kg; type: functional, Canis lupus familiaris, Heart left ventricle
Please provide measured Increase for the entries that follow.
# number only, unit % dropped from output

Give Canis familiaris Increase for CC1=C(c2ccc(-n3ccnc3C)cc2)CNC1=O
14

Lookup CCC1=C(c2ccc(-n3ccnc3)cc2)CNC1=O
21

Entry to check: CC1=C(c2ccc(-n3ccnc3)cc2)CNC1=O
40

Another compound: CCC1=C(c2ccc(-n3ccnc3C)cc2)CNC1=O
52

* * *

tested on: Canis familiaris; test: Mean percentage change in heart rate of pentobarbital anesthetized dogs at 3 mg/kg; type: functional, Canis lupus familiaris
Field: Increase. Provide a value for each of the molecules that follow.
Report the figure in % without appending any unit label.

Increase for CCC1=C(c2ccc(-n3ccnc3)cc2)CNC1=O ?
21

Then what about the molecule CCC1=C(c2ccc(-n3ccnc3C)cc2)CNC1=O ?
22

Now try CC1=C(c2ccc(-n3ccnc3)cc2)CNC1=O .
19

// repeat for CC1=C(c2ccc(-n3ccnc3C)cc2)CNC1=O and report
14
